Below, each entry is listed with its recorded Alive/Total Mice Tested, 7 Days After Infection.
system: Escherichia coli 311; assay: In vivo systemic lethal infection of mice, Escherichia coli 311; design: species or system Charles River CD-1 mice; settings: single subcutaneous dose 1 mg./kg., CD-1 mice
measuredProperty: Alive/Total Mice Tested, 7 Days After Infection

1. CO/N=C(\C(=O)NC1C(=O)N2C(C(=O)O)=C(CSc3nnc(-n4nc(C)cc4-c4ccccc4)n3N)CSC12)c1csc(N)n1 (stereo not shown) : 0/5
2. CO/N=C(\C(=O)NC1C(=O)N2C(C(=O)O)=C(CSc3nnc(-n4cccn4)n3N)CSC12)c1csc(N)n1 (stereo not shown) : 19/20
3. CO/N=C(\C(=O)NC1C(=O)N2C(C(=O)O)=C(CSc3n[nH]c(-n4cccn4)n3)CSC12)c1csc(N)n1 (stereo not shown) : 5/5
4. CO/N=C(\C(=O)NC1C(=O)N2C(C(=O)O)=C(CSc3nnc(-n4nc(C)cc4C)n3N)CSC12)c1csc(N)n1 (stereo not shown) : 0/5

====

system: Enterobacter aerogenes UR76-3; test: In vitro MIC, agar dilution, Enterobacter aerogenes UR76-3; assay type: cell-based; settings: Klebsiella aerogenes, UR763; Enterobacter aerogenes UR76-3; agar dilution, 35° C., 18 hours, nutrient agar; read-out: Minimal Inhibitory Concentration
Under this convention, y denotes MIC strictly below 1 µg/mL and n denotes MIC at or above 1 µg/mL.

1. CCN1CCN(C(=O)NC(C(=O)NC2C(=O)N3C(C(=O)O)=C(CSc4n[nH]c(-n5cccn5)n4)CS[C@H]23)c2ccc(O)cc2)C(=O)C1=O (some centres unmarked) [Compound VI] : y
2. CC(=O)OCC1=C(C(=O)O)N2C(=O)[C@@H](NC(=O)[C@H](N)c3ccccc3)[C@H]2SC1 [Compound XI, Cephaloglycin, reference compound] : n
3. CO/N=C(\C(=O)NC1C(=O)N2C(C(=O)O)=C(CSc3n[nH]c(-n4cccn4)n3)CSC12)c1csc(N)n1 (centres unmarked) [Compound V] : y
4. CCN1CCN(C(=O)NC(C(=O)NC2C(=O)N3C(C(=O)O)=C(CSc4nnc(-n5cccn5)n4N)CS[C@H]23)c2ccc(O)cc2)C(=O)C1=O (some centres unmarked) [Compound VII] : y
5. CO/N=C(\C(=O)NC1C(=O)N2C(C(=O)O)=C(CSc3nnc(-n4cccn4)n3N)CSC12)c1csc(N)n1 (centres unmarked) [Compound I] : y
6. Cc1nnc(SCC2=C(C(=O)O)N3C(=O)[C@@H](NC(=O)Cn4cnnn4)[C@H]3SC2)s1 [Compound XII, Cefazolin, reference compound] : n
7. CO/N=C(\C(=O)NC1C(=O)N2C(C(=O)O)=C(CSc3nnc(-n4nc(C)cc4-c4ccccc4)n3N)CSC12)c1csc(N)n1 (centres unmarked) [Compound III] : y
8. CO/N=C(\C(=O)NC1C(=O)N2C(C(=O)O)=C(CSc3nnc(-n4nc(C)cc4C)n3N)CSC12)c1csc(N)n1 (centres unmarked) [Compound II] : y
9. N[C@@H](C(=O)NC1C(=O)N2C(C(=O)O)=C(CSc3n[nH]c(-n4cccn4)n3)CS[C@H]12)c1ccccc1.O=C(O)C(F)(F)F (some centres unmarked) [Compound IX] : n

====

Measured MIC, listed per entry.
tested on: Enterobacter cloacae OSU75-2; assay: In vitro MIC, agar dilution, Enterobacter cloacae OSU75-2; type: cell-based; conditions: OSU752; Enterobacter cloacae OSU75-2; agar dilution, 35° C., 18 hours, nutrient agar; read-out: Minimal Inhibitory Concentration
measuredProperty: MIC

1. CCN1CCN(C(=O)NC(C(=O)NC2C(=O)N3C(C(=O)O)=C(CSc4nnc(-n5nc(C)cc5C)n4N)CS[C@H]23)c2ccc(O)cc2)C(=O)C1=O (some centres unmarked) [Compound VIII] : 128 µg/mL
2. CC(=O)OCC1=C(C(=O)O)N2C(=O)[C@@H](NC(=O)[C@H](N)c3ccccc3)[C@H]2SC1 [Compound XI, Cephaloglycin, reference compound] : > 128 µg/mL
3. CO/N=C(\C(=O)NC1C(=O)N2C(C(=O)O)=C(CSc3nnc(-n4nc(C)cc4-c4ccccc4)n3N)CSC12)c1csc(N)n1 (centres unmarked) [Compound III] : 4 µg/mL
4. CCN1CCN(C(=O)NC(C(=O)NC2C(=O)N3C(C(=O)O)=C(CSc4n[nH]c(-n5cccn5)n4)CS[C@H]23)c2ccc(O)cc2)C(=O)C1=O (some centres unmarked) [Compound VI] : 64 µg/mL
5. Cc1nnc(SCC2=C(C(=O)O)N3C(=O)[C@@H](NC(=O)Cn4cnnn4)[C@H]3SC2)s1 [Compound XII, Cefazolin, reference compound] : > 128 µg/mL

====

test system: Pseudomonas aeruginosa PD05141; experiment: In vitro MIC, agar dilution, Pseudomonas aeruginosa PD05141; format: cell-based; conditions: Pseudomonas aeruginosa PD05141; agar dilution, 35° C., 18 hours, nutrient agar; read-out: Minimal Inhibitory Concentration
Item-by-item account of MIC
measuredProperty: MIC

1. Nn1c(SCC2=C(C(=O)O)N3C(=O)C(NC(=O)Cc4cccs4)[C@H]3SC2)nnc1-n1cccn1 (stereo partly shown) : > 128 µg/mL
2. CO/N=C(\C(=O)NC1C(=O)N2C(C(=O)O)=C(CSc3n[nH]c(-n4cccn4)n3)CSC12)c1csc(N)n1 (stereo not shown) : 64 µg/mL
3. CCN1CCN(C(=O)NC(C(=O)NC2C(=O)N3C(C(=O)O)=C(CSc4nnc(-n5nc(C)cc5C)n4N)CS[C@H]23)c2ccc(O)cc2)C(=O)C1=O (stereo partly shown) : > 128 µg/mL
4. CO/N=C(\C(=O)NC1C(=O)N2C(C(=O)O)=C(CSc3nnc(-n4nc(C)cc4-c4ccccc4)n3N)CSC12)c1csc(N)n1 (stereo not shown) : > 128 µg/mL

====

System: Enterobacter cloacae MA75-1
Experiment: In vitro MIC, agar dilution, Enterobacter cloacae MA75-1
Assay type: cell-based
Conditions: MA751; Enterobacter cloacae MA75-1; agar dilution, 35° C., 18 hours, nutrient agar; read-out: Minimal Inhibitory Concentration
Description: The in vitro activity of representative compounds of the present invention are given in the following Table I in terms of minimal inhibitory concentration. The test used was the standard agar dilution test using a Steers multiple inocula replicator and incubating at 35° C. for 18 hours in conventional nutrient agar.
measuredProperty: MIC

1) CO/N=C(\C(=O)NC1C(=O)N2C(C(=O)O)=C(CSc3nnc(-n4nc(C)cc4-c4ccccc4)n3N)CSC12)c1csc(N)n1 (stereo not drawn) [Compound III] : 128 µg/mL
2) N[C@@H](C(=O)NC1C(=O)N2C(C(=O)O)=C(CSc3n[nH]c(-n4cccn4)n3)CS[C@H]12)c1ccccc1.O=C(O)C(F)(F)F (stereo partly drawn) [Compound IX] : > 128 µg/mL
3) Cc1nnc(SCC2=C(C(=O)O)N3C(=O)[C@@H](NC(=O)Cn4cnnn4)[C@H]3SC2)s1 [Compound XII, Cefazolin, reference compound] : > 128 µg/mL

====

MIC overview
tested on: Proteus morganii K72; experiment: In vitro MIC, agar dilution, Proteus morganii K72; format: cell-based; details: Morganella morganii; Proteus morganii K72; agar dilution, 35° C., 18 hours, nutrient agar; read-out: Minimal Inhibitory Concentration
measuredProperty: MIC (µg/mL)

1) CCN1CCN(C(=O)NC(C(=O)NC2C(=O)N3C(C(=O)O)=C(CSc4nnc(-n5cccn5)n4N)CS[C@H]23)c2ccc(O)cc2)C(=O)C1=O (stereo partly drawn) : 32
2) CCN1CCN(C(=O)NC(C(=O)NC2C(=O)N3C(C(=O)O)=C(CSc4nnc(-n5nc(C)cc5C)n4N)CS[C@H]23)c2ccc(O)cc2)C(=O)C1=O (stereo partly drawn) : 32

====

Catalogue of MIC readings, one per entry.
tested on: Proteus morganii K72; test: In vitro MIC, agar dilution, Proteus morganii K72; assay type: cell-based; conditions: Morganella morganii; Proteus morganii K72; agar dilution, 35° C., 18 hours, nutrient agar; read-out: Minimal Inhibitory Concentration
measuredProperty: MIC

1) CO/N=C(\C(=O)NC1C(=O)N2C(C(=O)O)=C(CSc3n[nH]c(-n4cccn4)n3)CSC12)c1csc(N)n1 (stereo not drawn) : ≤ 0.12 µg/mL
2) Cc1nnc(SCC2=C(C(=O)O)N3C(=O)[C@@H](NC(=O)Cn4cnnn4)[C@H]3SC2)s1 [Compound XII, Cefazolin, reference compound] : > 128 µg/mL
3) CO/N=C(\C(=O)NC1C(=O)N2C(C(=O)O)=C(CSc3nnc(-n4nc(C)cc4C)n3N)CSC12)c1csc(N)n1 (stereo not drawn) : 0.5 µg/mL

====

system: Proteus morganii K72; assay: In vitro MIC, agar dilution, Proteus morganii K72; type: cell-based; conditions: Morganella morganii; Proteus morganii K72; agar dilution, 35° C., 18 hours, nutrient agar; read-out: Minimal Inhibitory Concentration
measuredProperty: MIC (µg/mL)

1) CO/N=C(\C(=O)NC1C(=O)N2C(C(=O)O)=C(CSc3nnc(-n4nc(C)cc4-c4ccccc4)n3N)CSC12)c1csc(N)n1 (centres unmarked) : 2
2) CCN1CCN(C(=O)NC(C(=O)NC2C(=O)N3C(C(=O)O)=C(CSc4n[nH]c(-n5cccn5)n4)CS[C@H]23)c2ccc(O)cc2)C(=O)C1=O (some centres unmarked) : 32
